- System Under Test: Tyk2 (Homo sapiens, UniProt P29597)
- Construct: purchased Invitrogen
- Sequence (P29597 whole entry): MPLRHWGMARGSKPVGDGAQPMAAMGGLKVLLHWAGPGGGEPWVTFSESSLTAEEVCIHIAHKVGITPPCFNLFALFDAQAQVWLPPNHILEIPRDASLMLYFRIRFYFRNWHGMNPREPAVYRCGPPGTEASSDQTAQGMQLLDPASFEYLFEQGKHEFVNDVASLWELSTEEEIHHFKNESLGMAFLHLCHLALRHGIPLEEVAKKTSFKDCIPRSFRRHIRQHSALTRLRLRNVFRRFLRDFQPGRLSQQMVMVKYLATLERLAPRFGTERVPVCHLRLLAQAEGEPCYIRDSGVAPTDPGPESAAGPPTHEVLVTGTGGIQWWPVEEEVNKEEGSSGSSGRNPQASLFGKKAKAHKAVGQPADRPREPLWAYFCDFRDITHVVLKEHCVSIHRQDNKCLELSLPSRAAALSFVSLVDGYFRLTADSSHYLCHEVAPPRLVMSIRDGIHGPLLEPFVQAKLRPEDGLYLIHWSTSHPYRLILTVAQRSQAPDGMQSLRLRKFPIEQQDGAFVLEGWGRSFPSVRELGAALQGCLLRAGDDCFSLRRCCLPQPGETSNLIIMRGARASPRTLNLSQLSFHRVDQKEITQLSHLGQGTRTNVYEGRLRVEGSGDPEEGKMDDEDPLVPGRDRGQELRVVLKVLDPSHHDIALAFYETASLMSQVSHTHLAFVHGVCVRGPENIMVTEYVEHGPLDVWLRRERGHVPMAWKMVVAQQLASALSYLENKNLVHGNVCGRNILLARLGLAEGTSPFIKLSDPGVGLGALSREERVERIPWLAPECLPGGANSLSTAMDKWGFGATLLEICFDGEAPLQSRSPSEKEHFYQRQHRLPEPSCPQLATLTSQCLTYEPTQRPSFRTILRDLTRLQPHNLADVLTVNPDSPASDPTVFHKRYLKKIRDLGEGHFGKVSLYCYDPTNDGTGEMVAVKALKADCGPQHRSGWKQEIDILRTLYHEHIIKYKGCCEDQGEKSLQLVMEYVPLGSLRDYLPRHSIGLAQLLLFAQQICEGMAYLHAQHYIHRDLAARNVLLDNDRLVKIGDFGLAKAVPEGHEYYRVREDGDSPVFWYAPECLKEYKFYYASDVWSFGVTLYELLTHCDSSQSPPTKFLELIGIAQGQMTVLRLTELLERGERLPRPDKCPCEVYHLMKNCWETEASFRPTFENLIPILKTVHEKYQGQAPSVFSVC
- Run Description: Tyk2 enzyme inhibition test (LANCE method)
- Assay type: biochemical
- Condition: test compound 1 μM; well without enzyme = 100% inhibition; read-out: Tyk2 enzyme inhibitory activity (%, 1 μM)
Counter-ions that a name gives are not always drawn.
Readout Kind: inhibition at 1 µM (%)

CCC1(C#N)CCN(c2ccnc(Nc3ccc(N4CCOCC4)cn3)c2)C1=O (centres unmarked) [Example 126, hydrochloride]: 72
CNC(=O)c1cc(Nc2cc(N3CC[C@@](C#N)(C4CC4)C3=O)ccn2)nn1C [Example 5]: 101
C[C@@H]1C[C@@](C#N)(C2CC2)C(=O)N1c1ccnc(Nc2cc(C(N)=O)n(C)n2)c1 [Example 137]: 107
N#CC1(C2CC2)CCN(c2ccnc(Nc3ccc(N4CCOCC4)cn3)c2)C1=O (centres unmarked) [Example 127]: 83
N#C[C@@]1(C2CC2)CCN(c2ccnc(Nc3cc(C(F)(F)F)ncn3)c2)C1=O [Example 43]: 95
N#C[C@@]1(C2CC2)CCN(c2ccnc(Nc3ccc(N4CCOCC4)cn3)c2)C1=O [Example 1]: 99
N#C[C@@]1(C2CC2)CCN(c2ccnc(Nc3cccnn3)c2)C1=O [Example 92]: 96
CC(C)(O)c1ccc(Nc2cc(N3CC[C@@](C#N)(C4CC4)C3=O)ccn2)nc1 [Example 3]: 99

These data points were gathered from patent US20160159773A1.
